# System: Rattus norvegicus
# test-protocol: Cardiovascular activity in deoxycorticosterone acetate treated hypertensive CD rat assessed as change in heart rate at 100 mg, ip after 1 hr relative to control
# Type: ADME, organism-based
# condition-info: in vivo
experimental-readout: Activity (%)

INSERT INTO measurements (smiles_repr, target, experimental_readout, assay_result) VALUES
  ('COc1c2c(c3c(c1OC)CCN(CC(c1ccccc1)c1ccccc1)C3)CCC2', 'Rattus norvegicus', 'Activity', 18.5),
  ('COc1ccc(C(=O)N2CCc3c(c4c(c(OC)c3OC)CCC4)C2)cc1OC', 'Rattus norvegicus', 'Activity', 0.2),
  ('COc1c2c(c3c(c1OC)CN(CC(c1ccccc1)c1ccccc1)CC3)CCC2', 'Rattus norvegicus', 'Activity', 8.7),
  ('COc1c2c(c3c(c1OC)CN(CCC(c1ccccc1)c1ccccc1)CC3)CCC2', 'Rattus norvegicus', 'Activity', 4);
